Test method notes: yeast display, Sf9 membrane polyspecificity reagent, FACS + sequencing; frameworks hold sequencing errors
Measured quantity: polyreactivity (PSR sort gate)

In the examples that follow, each entry is paired with its recorded polyreactivity (PSR sort gate).
QVQLVESGGGLVQAGGSLRLSCAASGRTFFPYGMGWYRQAPGKERELVATISWSGGSTHYADSVKGRFTISRDNAKNTVYLQMNSLKPEDTAVYYCAAGNSLYWYNSGNYWGQGTQVTVSS = low polyreactivity
QVQLVESGGGLVQAGGSLRLSCAASGSTSSVNAMGWYRQAPGKEREFVATISFGGGRRYYADSVKGRFTISRDNAKNTVYLQMNSLKPEDTAVYYCAAVGSRWFSQTWRDYWGQGTQVTVSS = high polyreactivity
QVQLVESGGGLGQAGGSLRLSCAASGRIFFHYAMGWYRPAPGKERELVATITTVGSTYYADSVKGRFTISRDNAKNTVYLQMNSLKPEDTAVYYCAARYISLSGDEYDYWGQGTQVTVSS = low polyreactivity
QVQLVESGGGLVQAGGSLRLSCAASGSIFAPDVMGWYRQAPGKERELVAAITESGGRTYYAASVKGRFTISRDNAKNTVYLQMNSLKPVDTAVYSCAARTFDRNRQLRRQWYDYWGLGTQVTVSS = high polyreactivity
QVQLVESGGRLVQAGGSLRLSCAASGRTFSTYDMGWSRQAPGKERELVAAITSTGDTPYYADSVKGRFTISRDTAKNTVYLQLNSLKPEDTAVYYCAAYASWHQWIYAFYGLDYWGQGTQVTVSS = low polyreactivity

Okay, now this sequence:
polyreactivity (PSR sort gate) for QVQLVESAGGLVQAGGSLRLSCAASGSIFVYNTMGWYRQAPGKERELVASITYSGGSTYYADSVKGRFTISRDNAKNTVYLQMNSLKPEDTAVYYCNTDDVALQWDWYPYPYDYWGQGTQVTVSS ?
low polyreactivity

---

Test method notes: yeast display, Sf9 membrane polyspecificity reagent, FACS + sequencing; frameworks hold sequencing errors
Measured quantity: polyreactivity (PSR sort gate)

In the examples that follow, each entry is paired with its recorded polyreactivity (PSR sort gate).
QVQLVESVVGLVQAGGSLRLSCAATGSIFRWYAMGWYRQAPGKERELVAAITWSASRTYYADSVKGRFTISRDNGKNTVYLQMNSLKPEDTAVYYCAADHDCPYAGYDSWGQGTQVTVSS = low polyreactivity
QVQLVESGGGIVQAGGSLRLSCAASGFTFSNNVMGGYRQAPGKERELVAAITWSGDGTYYADSVKGRFTISRDNAKNTVYLQMNSLKPEDTAVYYCNARYGKEYDYWGQGTQVTVSS = low polyreactivity
QVQLVESGGGLVQAGGSLRLSCAASGRTFYYYTRGWYRQAPGKERELVAAISRRGGRTYYADSVKGRFTISRDNAKNTVYLQMNSLKPEDTAVYNCAKETPHCPGLGGYDYWGQGTQVTVSS = high polyreactivity
QVQLVESGGGLVQAGGSLRLSCAASGIIFYIYTMAWYRQAPGKERELVAAINRSGSRTYYADSVKGRFTISRDNAKNTVYLQMNSLKPEDTAVYYCAAGTGSRDDYWGQGTQVTVSS = high polyreactivity

polyreactivity (PSR sort gate) for QVQLVESGGGLVQAGGSLRLSCAASGSTFRVNARGWYRQAPGKERELVAAISFSAGGTYYADSVKGRFTISRDNAKNTVYLQMNSLKPEDTAVYYCAADFYYYDYWGQCTQVTVSS ?
low polyreactivity

Now try QVQLVESGGGLVQAGGSLRLSCAASGSIFKPYAMGWYRQAPGKERELVAAITRSGGSTYYADSVKGRFTISRDKAKNTVYLQMNSLKPEDTAVYYCAAGNAPYFRYGSKKYGYWGQGTQVTVSS .
high polyreactivity

Now try QVQLVESGGGLVQAGGSLRLSCAASGYIFHRYAMGWYRQAPGKERELVAAISWRVTSTFYADSVKGRFTISRDNAKNTVYLQMNCLKPEDTAVYYCASVKWVGYKYWSSRKYDYWGQGTQVTVSW .
high polyreactivity

Now try QVQLVESGGGLVQAGGSLRLSCAASGSIFRSYAMGWYRQAPGNERELVAALSGRGSNTYYADSVKGRFTISRDNAKNTVYLQMNSLKPEDTAVYYGATRRHYGSTRSYDYWGQGTQVTVSS .
high polyreactivity

Now try QVQLVESGGGLVQAGGSLRLSCAASGSTFYIYTMGWYRQAPGKERELVATISWDGGNTYYADSVKGRFTISRDNAKNTVYLQMNSLKPEDTAVYYCARDSSIWSHGSWYDYWGQGTQVTVSS .
low polyreactivity

Now try QVQLVESGGGLVQAGGSLRLICAASGSIFTYYVMGWYRQAPGKDRDLVAGISRAGSTNYADSVKGRFTISRDNAKNTVYLQMNSLKPEDTAVYYCAKSVWFVKHRKPHDYWGQGTQVTVSS .
low polyreactivity

Now try QVQLVESGGGLVQAGGSLRLSCAASGSIFDLNTMGWYRQAPGKERELVAAITWGGGSTYYADSVKGRFTISRDNAKNTVYLQMNSLKPEDTAVYYCNVTWSWGEKGRKAYGYWGQGTQVTVSS .
low polyreactivity

Now try QVQLVESGGGLVQAGGSLRLSCAASGFTFPYYAMGWYRQAPGKERELVAAISWDGGITYYADSVKGRFTISRDNAKNTVYLQMNSLKPEDTAVYYCNVEGWYDYDYWGQGTQVTVSS .
high polyreactivity

Now try QVHLVDSGGGLVQAGGILRLSCPATGSIFVYNTMGWYRQAPGKERELVADITSGTSTYYADSVKGRFTISRDNAKNTVYLQMNSLKPEDTAVYYSAAERWYKYYAYDYWGQGTQVTVSS .
low polyreactivity

---

Test method notes: yeast display, Sf9 membrane polyspecificity reagent, FACS + sequencing; frameworks hold sequencing errors
Measured quantity: polyreactivity (PSR sort gate)

QVQLVESGGGLVQAGGSLRLSCAASGSTFWLNAMGWYRQAPGKEREFVAAITWSSGSTYYADSVKGRFTISRDNAKNTVYLQMNSLKPEDTAVYYCAADGRYVRIRGDYWGQGTQVTVSS = low polyreactivity
QVQLVESGGGLVQAGGSLRLSCAASGSTFIFNTMGWYRQAPGKERELVASITGDGRTNYADSVKGRFTISRDNAKNTVYLQMNSLKPEDTAVYYCAADGYDQYPLWAPPGDYWGQGTQVTVSS = low polyreactivity
QVQLVESGGGLVQAGGSLRLSCAASGRIFESYAMGWYRQAPGKERELVAAISSGGGTTYYADSVKGRFTISRDNAKNTVYLQMNSLKPEDTAVYYCAADALSDEYDYWGQGTQVTVSS = low polyreactivity
QVQLVESGGGLVQAGGSLSLSCAASGRTFTPNVMGWYRQAPGKERELVAGISSTGGSTYYADSVKGRFTISRDNAKNTVYLHMNSLKPEDTAVYYCAKEYYDGYFPTFDYDYWGQGTQVTVSS = low polyreactivity

---

Test method notes: yeast display, Sf9 membrane polyspecificity reagent, FACS + sequencing; frameworks hold sequencing errors
Measured quantity: polyreactivity (PSR sort gate)

In the examples that follow, each entry is paired with its recorded polyreactivity (PSR sort gate).
QVQLVESGGGLVQAGGTLRLSCAASGYTFPLYAMGWYRQAPVKERELVADINIGGASTYYADSVKGRFTISRDNATNTVYLQMNSLKPEDTAVYDCAKEYYDGYFPTFDYDYFGQGTQVTVSS = low polyreactivity
QVQLVESGGGLVQAGGSLRLSCAASGFTFSYYAMGWYIQAPGKERELVATITWGGGRTYYADSVKGRFTISRDNAKNTVYLQMNSLKPEDTAVYYCNAERTYFQYYRNYDYWGQGTKVTVSS = low polyreactivity
QVQLVESGGGLVQAGGSLRLSCAASGSTFAAYAAMGWYRQAPGKERELVAAISWNGGSTFYADSVKGRFTISRDNAKNTVYLQMNSLKPEDTAVYYCAVEYYWTLDFTFTFPLSYYWGQGSQVTVSS = low polyreactivity
QVQLVESGGGLVQAGGSLRLSSAASGSIFYVYAMGWYRQAPGKERELVAAISRRGARTYYADSVKGRFTISRDNEKNTVYLQMNILKPEDTAVYYCYADQYHTVGYSAEYEYWGQGTQVTVSS = low polyreactivity
HVQLGESGGGLVQAGGSLRLSCAASGFIFTAYVMGWYRQAPGKERELVAAISRSGGSTYYADSVKGRFTISRDNAKHTVYLQMNSLKPEDTAVYYCAKLRRDARYDYWGQGTQVTVSS = high polyreactivity

polyreactivity (PSR sort gate) for QVQLVESGGGLVQAGGRLRLICAASGSIFVSYALGWYRQAPGKERELVAAISTTGGRTRYADSVKGRFTISRDNAQNTVYLQMNSLKPEDTAVYYCAAVGARKMYYWGQGTQVTVSS ?
high polyreactivity

Now try QVQLVESGGGLVQAGGSLRLSCAASGFTFYRNAMGWYRQAPGKERELVARIRGTGGRTYYADSVKGRFTISRDNAKNTVYLQMNSLKPEDTAVYYCNVGRGYSFANGDYWGQGTQVTVSS .
high polyreactivity

Now try QVQLVETAGGIVQAGGSLRLSCAASGRTNKYYAMGWYRQAPGKEREWVAVISWSGGSTYYADSVKGRFTISRDNAKNTVYLQMNSLKPEETAVYYCAARKRAQQGTRDHDYWGQGTQVTVSS .
high polyreactivity

Now try QVQLVESGGGLVHAGGSLRLSCAASGRIYYFNAMGWYRQAPGKERELVATITYIGGSTHYADSEKGRFTISRDNAKNTVYLQMNSLKPEVTAVYYCAVRDGKDTDTYWYGYWGQGTQVTVSS .
low polyreactivity

Now try QVQLVESRGGLVQAGGSLRLSCAASGSIFRPYAMGWYRQAPGKERELVAAISSSGGSTYYADSVKGRFTISRDNAKNTVYLQMNSLKPEDTAVYYCAAESRSTWIHSRDYWGQGTQVTVSS .
low polyreactivity

Now try QVQLVESGGGLVQAGGSLRLSCAASGSIFRRYTMGWYRQAPGKERELVAAISRVGNTNYADSVKGRFTISRDNAKNTVYLQMNSLKPEDTAVYYCAARAIGYRYTPGLNYWGQGTQVTVSS .
high polyreactivity

Data provenance: the nanobody polyreactivity screen of Harvey et al. (2022)
